- target system: T1, monomeric hCD86 ECD (papain-digested hCD86-mIg) (human, UniProt P42081 24-243)
- T1 construct: also called monomeric hCD86-mIg ligand; monomeric CD86 ECD
- T1 chain: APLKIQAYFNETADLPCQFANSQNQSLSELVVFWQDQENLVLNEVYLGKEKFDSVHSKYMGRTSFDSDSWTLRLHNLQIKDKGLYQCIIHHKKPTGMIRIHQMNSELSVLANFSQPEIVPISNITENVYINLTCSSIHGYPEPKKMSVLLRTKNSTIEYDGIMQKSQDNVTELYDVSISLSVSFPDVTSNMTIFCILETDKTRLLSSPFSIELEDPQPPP
- assay remarks: SPR Biacore, fusion protein captured, monomeric hCD86 ECD in flow
quantity name: Kd

Given item D3-4-IgG2 (Fc fusion, also called D3-04-IgG2) MHVAQPAVVLASSRGIASFVCEYESPGKANEIRVTVLRQADSQVTEVCAMTYMKGDELTFLDDPSCTGTFSGNQVNLTIQGLRAADTGLYICKVELMYPPPYYLGFGNGTQIYVIDPEPCPDSDERKCCVECPPCPAPPVAGPSVFLFPPKPKDTLMISRTPEVTCVVVDVSHEDPEVQFNWYVDGVEVHNAKTKPREEQFNSTFRVVSVLTVVHQDWLNGKEYKCKVSNKGLPAPIEKTISKTKGQPREPQVYTLPPSREEMTKNQVSLTCLVKGFYPSDIAVEWESNGQPENNYKTTPPMLDSDGSFFLYSKLTVDKSRWQQGNVFSCSVMHEALHNHYTQKSLSLSPG , the value recorded as its Kd is < 336 nM
